target.or.test.system: ALDH2*1/*2 (Homo sapiens, UniProt P05091, E504K)
Construct: His-tag; made in house; host or cells: E. coli BL21 (pETDuet-1 co-expression)
test.details: ALDH2 enzymatic activity, NADH accumulation at 340 nm, acetaldehyde substrate, heterozygous form
Format: biochemical
details: 20 μM compound; relative to baseline enzymatic activity (100%)
Method: ALDH2 catalyzes the oxidative reaction of substrate acetaldehyde to acetic acid using NAD^+ as a cofactor. Enzymatic activity, or catalytic rate, of aldehyde dehydrogenase (ALDH2) are measured spectrophotometrically at UV wavelength λ340 nm by the accumulation of reduced product NADH derived from NAD^+. Absorbance at λ340 nm is quantitatively proportional to the amount of NADH being produced over time (6.22 O.D. unit=1 mmol of NADH, measured in a 1-cm width standard cuvette). […]
measurement.kind: activity at 20 µM (%)
Please reply with the bare figure in % and do not write the unit itself.

COc1ccc(CNC(=O)c2cc(-c3ccncc3CO)ccc2OCC2CC2)cc1F ... 402
COc1ccc(CNC(=O)c2cc(-c3cnccc3CO)cnc2OCC2CC2)cc1F ... 531
COc1ccc(CNC(=O)c2cc(-c3ncccc3CO)cnc2OCC2CC2)cc1F ... 479

Entry `COc1ccc(CNC(=O)c2cc(-c3c(CO)cccc3N(C)C)cnc2OCC2CC2)cc1F` ; activity at 20 µM = 203

Entry `COc1ccc(CNC(=O)c2cc(-c3ncccc3CO)ccc2OCC2CC2)cc1F` ; activity at 20 µM = 336

Entry `COc1ccc(CNC(=O)c2cc(-c3cccc(F)c3CO)cnc2OCC2CC2)cc1F` ; activity at 20 µM = 197

* * *

target.or.test.system: ALDH2*1/*1 (Homo sapiens)
Construct: His-tag (N); made in house; host or cells: E. coli BL21 (pTrcHis vector)
test.details: ALDH2 enzymatic activity, NADH accumulation at 340 nm, acetaldehyde substrate, wild type
Type: biochemical
details: 5 μM compound; relative to baseline enzymatic activity (100%)
// label = Fulfilled if activity at 5 µM is not less than 300%, otherwise Not fulfilled

Solved cases below.
COc1ccc(CNC(=O)c2cc(-c3cc(F)ccc3CO)cnc2OCC2CC2)cc1F [AC20] ... Not fulfilled
COc1ccc(CNC(=O)c2cc(-c3ccccc3CO)ncc2OCC2CC2)cc1F [AC3] ... Not fulfilled
COc1ccc(CNC(=O)c2cc(-c3ccsc3CO)ccc2OCC2CC2)cc1F [AC27] ... Fulfilled
COc1ccc(CNC(=O)c2cc(-c3c(F)cccc3CO)ccc2OCC2CC2)cc1F [AC22] ... Not fulfilled

Does COc1ccc(CNC(=O)c2cc(-c3cnccc3CO)ccc2OCC2CC2)cc1F [AC5] have a reported activity at 5 µM of at least 300%?
Fulfilled

* * *

target.or.test.system: ALDH2*1/*1 (Homo sapiens)
Construct: His-tag (N); made in house; host or cells: E. coli BL21 (pTrcHis vector)
test.details: ALDH2 enzymatic activity, NADH accumulation at 340 nm, acetaldehyde substrate, wild type
Format: biochemical
details: 10 μM compound; relative to baseline enzymatic activity (100%)
# Lookup of reported activity at 10 µM keyed by entry
Please reply with the bare figure in % and do not write the unit itself.

COc1ccc(CNC(=O)c2cc(-c3sccc3CO)ccc2OCC2CC2)cc1F ... 366
COc1ccc(CNC(=O)c2cc(-c3ccc(F)cc3CO)ccc2OCC2CC2)cc1F ... 291
COc1ccc(CNC(=O)c2cc(-c3ccccc3CO)ncc2OCC2CC2)cc1F ... 220

activity at 10 µM of `COc1ccc(CNC(=O)c2cc(-c3ccncc3CO)ccc2OCC2CC2)cc1F` , assay on ALDH2*1/*1 (Homo sapiens), is 354

activity at 10 µM of `COc1ccc(CNC(=O)c2cc(-c3c(CO)ccc[n+]3[O-])ccc2OCC2CC2)cc1F` , assay on ALDH2*1/*1 (Homo sapiens), is 162

activity at 10 µM of `COc1ccc(CNC(=O)c2cc(-c3cnccc3CO)cnc2OCC2CC2)cc1F` , assay on ALDH2*1/*1 (Homo sapiens), is 346

* * *

target.or.test.system: ALDH2*1/*2 (Homo sapiens, UniProt P05091, E504K)
Construct: His-tag; made in house; host or cells: E. coli BL21 (pETDuet-1 co-expression)
test.details: ALDH2 enzymatic activity, NADH accumulation at 340 nm, acetaldehyde substrate, heterozygous form
Type: biochemical
details: 5 μM compound; relative to baseline enzymatic activity (100%)
Procedure: ALDH2 catalyzes the oxidative reaction of substrate acetaldehyde to acetic acid using NAD^+ as a cofactor. Enzymatic activity, or catalytic rate, of aldehyde dehydrogenase (ALDH2) are measured spectrophotometrically at UV wavelength λ340 nm by the accumulation of reduced product NADH derived from NAD^+. Absorbance at λ340 nm is quantitatively proportional to the amount of NADH being produced over time (6.22 O.D. unit=1 mmol of NADH, measured in a 1-cm width standard cuvette). […]
measurement.kind: activity at 5 µM

COc1ccc(CNC(=O)c2cc(-c3ccccc3CO)ncc2OCC2CC2)cc1F ... 245%
COc1ccc(CNC(=O)c2cc(-c3ncccc3CO)cnc2OCC2CC2)cc1F ... 299%
COc1ccc(CNC(=O)c2cc(-c3c(CO)ccc[n+]3[O-])ccc2OCC2CC2)cc1F ... 121%

# input for lookup
Entry `COc1ccc(CNC(=O)c2cc(-c3ccsc3CO)ccc2OCC2CC2)cc1F` ; activity at 5 µM = 420%

* * *

target.or.test.system: ALDH2*1/*1 (Homo sapiens, UniProt P05091)
Construct: His-tag (N); made in house; host or cells: E. coli BL21 (pTrcHis vector)
test.details: ALDH2 enzymatic activity, NADH accumulation at 340 nm, acetaldehyde substrate, wild type
Type: biochemical
details: 2.5 μM compound; relative to baseline enzymatic activity (100%)
Simple rule here: activity at 2.5 µM less than 200% is Met, otherwise Not met.

Solved cases below.
COc1ccc(CNC(=O)c2cc(-c3cccc(F)c3CO)cnc2OCC2CC2)cc1F [AC18] ... Met
COc1ccc(CNC(=O)c2cc(-c3cnccc3CO)cnc2OCC2CC2)cc1F [AC10] ... Met
COc1ccc(CNC(=O)c2cc(-c3ccncc3CO)ccc2OCC2CC2)cc1F [AC9] ... Not met

Attention now shifts to the item below.
hey, is activity at 2.5 µM for COc1ccc(CNC(=O)c2cc(-c3ccccc3CO)cnc2OCC2CC2)cc1F [AC1] lower than 200% or not?
Met

* * *

target.or.test.system: ALDH2*1/*1 (Homo sapiens, UniProt P05091)
Construct: His-tag (N); made in house; host or cells: E. coli BL21 (pTrcHis vector)
Sequence (P05091 18-517): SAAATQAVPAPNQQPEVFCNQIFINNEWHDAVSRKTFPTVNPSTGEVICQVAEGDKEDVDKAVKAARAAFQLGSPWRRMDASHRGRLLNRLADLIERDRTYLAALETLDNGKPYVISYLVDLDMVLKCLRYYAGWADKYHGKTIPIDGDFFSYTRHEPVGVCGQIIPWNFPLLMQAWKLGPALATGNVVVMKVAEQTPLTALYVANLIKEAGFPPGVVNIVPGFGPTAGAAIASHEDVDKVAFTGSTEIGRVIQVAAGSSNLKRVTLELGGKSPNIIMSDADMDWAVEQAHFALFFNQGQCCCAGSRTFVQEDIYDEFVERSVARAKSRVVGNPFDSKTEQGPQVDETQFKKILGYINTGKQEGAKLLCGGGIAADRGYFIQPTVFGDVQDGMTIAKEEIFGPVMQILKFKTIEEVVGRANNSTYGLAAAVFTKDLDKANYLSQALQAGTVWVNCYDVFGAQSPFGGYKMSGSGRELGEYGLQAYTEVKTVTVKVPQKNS
test.details: ALDH2 enzymatic activity, NADH accumulation at 340 nm, acetaldehyde substrate, wild type
Type: biochemical
details: 20 μM compound; relative to baseline enzymatic activity (100%)
measurement.kind: activity at 20 µM
Don't forget the unit after the number, please.

COc1ccc(CNC(=O)c2cc(-c3cnccc3CO)cnc2OCC2CC2)cc1F [AC10] ... 414%
COc1ccc(CNC(=O)c2cc(-c3ccncc3CO)ccc2OCC2CC2)cc1F [AC9] ... 376%
COc1ccc(CNC(=O)c2cc(-c3cnccc3CO)ccc2OCC2CC2)cc1F [AC5] ... 487%
COc1ccc(CNC(=O)c2cc(-c3sccc3CO)cnc2OCC2CC2)cc1F [AC26] ... 394%
COc1ccc(CNC(=O)c2cc(-c3ccncc3CO)cnc2OCC2CC2)cc1F [AC12] ... 379%

Entry COc1ccc(CNC(=O)c2cc(-c3c(CO)ccc[n+]3[O-])ccc2OCC2CC2)cc1F [AC14] ; activity at 20 µM = 189%

Entry COc1ccc(CNC(=O)c2cc(-c3cccc(F)c3CO)cnc2OCC2CC2)cc1F [AC18] ; activity at 20 µM = 187%

Entry COc1ccc(CNC(=O)c2cc(-c3c(CO)cccc3N(C)C)ccc2OCC2CC2)cc1F [AC16] ; activity at 20 µM = 133%

Entry COc1ccc(CNC(=O)c2cc(-c3ccccc3CO)cnc2OCC2CC2)cc1F [AC1] ; activity at 20 µM = 412%
